Examples of variants with documented normalized RNA/DNA level without ligand (log10) follow.
B1: library; a variant is named by its letters at N, in order (parent)
chain: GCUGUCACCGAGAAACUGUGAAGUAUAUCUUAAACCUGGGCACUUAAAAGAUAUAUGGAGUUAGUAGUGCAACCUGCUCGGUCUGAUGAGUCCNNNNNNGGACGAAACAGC

variants of: B1; assay: normalized RNA/DNA level without ligand (relative to sTRSVctl = 100) (log10 (% of sTRSVctl)); HEK293T; ligand: cyclic di-GMP (c-di-GMP-II aptamer); higher = less ribozyme self-cleavage, higher mRNA level; conditions: reporter: mCherry (pCS4076), ligand present: no

// worked examples, normalized RNA/DNA level without ligand (log10) included
[
  {
    "variant_notation": "UACUCC",
    "experimental_result": 1.76
  },
  {
    "variant_notation": "CAUCGC",
    "experimental_result": 1.78
  },
  {
    "variant_notation": "UAAUAU",
    "experimental_result": 1.64
  }
]

[in] Please give the measured normalized RNA/DNA level without ligand (log10) for this variant: `UCGCCA`
[out] 1.71

[in] Please give the measured normalized RNA/DNA level without ligand (log10) for this variant: `AGCUCU`
[out] 1.76

[in] Please give the measured normalized RNA/DNA level without ligand (log10) for this variant: `UGUCAU`
[out] 1.68

[in] Please give the measured normalized RNA/DNA level without ligand (log10) for this variant: `GUCCCG`
[out] 1.76

[in] Please give the measured normalized RNA/DNA level without ligand (log10) for this variant: `CUAAAC`
[out] 1.7

[in] Please give the measured normalized RNA/DNA level without ligand (log10) for this variant: `UAAUUA`
[out] 1.7

[in] Please give the measured normalized RNA/DNA level without ligand (log10) for this variant: `CAUGAA`
[out] 1.28

[in] Please give the measured normalized RNA/DNA level without ligand (log10) for this variant: `AUGCCU`
[out] 1.74

[in] Please give the measured normalized RNA/DNA level without ligand (log10) for this variant: `GGGAAC`
[out] 1.68

[in] Please give the measured normalized RNA/DNA level without ligand (log10) for this variant: `UAGGCA`
[out] 1.68

[in] Please give the measured normalized RNA/DNA level without ligand (log10) for this variant: `UCUCCC`
[out] 1.81

[in] Please give the measured normalized RNA/DNA level without ligand (log10) for this variant: `UAGAUA`
[out] 1.61
